Assay: Lipophilicity, log D of the compound
Conditions: octanol/water, logD
Outcome measure: logD

Please review the following examples before continuing.
INSERT INTO assay_data (substance_smiles, outcome_measure, reported_measurement) VALUES
  ('CN[C@@H](C)C(=O)N[C@H]1CCC[C@H]2C[C@H]3CCN(CCc4nc5cc(C)ccc5[nH]4)C[C@H]3N2C1=O', 'logD', 1.3),
  ('CN[C@@H](C)C(=O)N[C@H]1CCC[C@H]2C[C@H]3CCN(CC4CCCCC4)C[C@H]3N2C1=O', 'logD', 0.9),
  ('CN[C@@H](C)C(=O)N[C@H]1CCC[C@H]2C[C@H]3CCN(CCc4ccc(F)cc4)C[C@H]3N2C1=O', 'logD', 1.3);

I. CN[C@@H](C)C(=O)N[C@H]1CCC[C@H]2C[C@H]3CCN(CCc4ccccc4)C[C@H]3N2C1=O
II. CN[C@@H](C)C(=O)N[C@H]1CCC[C@H]2C[C@H]3CCN(C(=O)c4ccccc4)C[C@H]3N2C1=O
III. CN[C@@H](C)C(=O)N[C@H]1CCC[C@H]2C[C@H]3CCN(CCc4ccccc4OC)C[C@H]3N2C1=O
In this exercise, place the 3 compounds in ascending sequence of their recorded logD. # format: label list in the order the request specifies II, III, I

----------
Assay: Percentage unbound in human plasma
Details: Fu
Outcome measure: fraction unbound

Record excerpt, results attached:
INSERT INTO measurements (molecule, reported_measurement) VALUES
  ('C#CCOCC(C(=O)N1CC[C@@H]2C[C@@H]3CCC[C@H](NC(=O)[C@H](C)NC)C(=O)N3[C@@H]2C1)c1ccccc1 (stereo in doubt; 42)', 0.14),
  ('CN[C@@H](C)C(=O)N[C@H]1CCC[C@H]2C[C@H]3CCN(CCc4ccc(F)cc4)C[C@H]3N2C1=O', 0.48),
  ('CN[C@@H](C)C(=O)N[C@H]1CCC[C@H]2C[C@H]3CCN(CCc4ccccc4F)C[C@H]3N2C1=O', 0.49),
  ('CN[C@@H](C)C(=O)N[C@H]1CCC[C@H]2C[C@H]3CCN(C(=O)OCc4ccccc4)C[C@H]3N2C1=O', 0.42),
  ('CN[C@@H](C)C(=O)N[C@H]1CCC[C@H]2C[C@H]3CCN(CCC4CCCCC4)C[C@H]3N2C1=O', 0.49),
  ('CN[C@@H](C)C(=O)N[C@H]1CCC[C@H]2C[C@H]3CCN(CCc4ccc(Cl)cc4)C[C@H]3N2C1=O', 0.24);

1. CN[C@@H](C)C(=O)N[C@H]1CCC[C@H]2C[C@H]3CCN(CCc4ccc(Br)cc4)C[C@H]3N2C1=O
2. CN[C@@H](C)C(=O)N[C@H]1CCC[C@H]2C[C@H]3CCN(C(=O)Nc4ccccc4)C[C@H]3N2C1=O
3. CN[C@@H](C)C(=O)N[C@H]1CCC[C@H]2C[C@H]3CCN(C(=O)C(OCC#CC#CCOC(C(=O)N4CC[C@@H]5C[C@@H]6CCC[C@H](NC(=O)[C@H](C)NC)C(=O)N6[C@@H]5C4)c4ccccc4)c4ccccc4)C[C@H]3N2C1=O (stereo in doubt; 53)
4. CN[C@@H](C)C(=O)N[C@H]1CCC[C@H]2C[C@H]3CCN(S(=O)(=O)Cc4ccccc4)C[C@H]3N2C1=O
Sort ascending by fraction unbound. Form entry: ranked labels (order as requested). 3, 1, 4, 2
(3: 0.051, 1: 0.17, 4: 0.4, 2: 0.62)

P. CN[C@@H](C)C(=O)N[C@H]1CCC[C@H]2C[C@H]3CCN(C(=O)C(c4ccccc4)c4ccccc4)C[C@H]3N2C1=O
Q. CN[C@@H](C)C(=O)N[C@H]1CCC[C@H]2C[C@H]3CCN(C(=O)Cc4ccccc4)C[C@H]3N2C1=O
Problem: Given the entries P and Q , determine which has the lower reported fraction unbound. Reply briefly: the label of your chosen item. P

I. CN[C@@H](C)C(=O)N[C@H]1CCC[C@H]2C[C@H]3CCN(S(=O)(=O)c4ccccc4)C[C@H]3N2C1=O
II. CN[C@@H](C)C(=O)N[C@H]1CCC[C@H]2C[C@H]3CCN(CCc4ccc([N+](=O)[O-])cc4)C[C@H]3N2C1=O
III. CN[C@@H](C)C(=O)N[C@H]1CCC[C@H]2C[C@H]3CCN(CCc4ccc(Cl)c(Cl)c4)C[C@H]3N2C1=O
IV. CN[C@@H](C)C(=O)N[C@H]1CCC[C@H]2C[C@H]3CCN(CCc4ccc(C)cc4)C[C@H]3N2C1=O
In this exercise, place the 4 molecules in ascending sequence of their recorded fraction unbound. Ranked list of labels, please, in the requested order. III, I, IV, II

P. CN[C@@H](C)C(=O)N[C@H]1CCC[C@H]2C[C@H]3CCN(Cc4ccccc4)C[C@H]3N2C1=O
Q. CN[C@@H](C)C(=O)N[C@H]1CCC[C@H]2C[C@H]3CCN(CC(C)c4ccccc4)C[C@H]3N2C1=O (mixture of isomers)
Could you check which of P and Q has a smaller value for fraction unbound? The response must carry the label of the picked entry. Q

a. CN[C@@H](C)C(=O)N[C@H]1CCC[C@H]2C[C@H]3CCN(CCc4ccccc4C)C[C@H]3N2C1=O
b. CN[C@@H](C)C(=O)N[C@H](C(=O)N1CC[C@H]2CCN(CCc3ccccc3)C[C@H]21)C1CCCCC1
From the recorded data, which exceeds the other in fraction unbound: a or b ? Lab note: record the label of whichever item you select. a

a. CN[C@@H](C)C(=O)N[C@H]1CCC[C@H]2C[C@H]3CCN(CCc4cccc(OC)c4)C[C@H]3N2C1=O
b. CN[C@@H](C)C(=O)N[C@H]1CCC[C@H]2C[C@H]3CCN(CCc4ccc(C(F)(F)F)cc4)C[C@H]3N2C1=O
c. CN[C@@H](C)C(=O)N[C@H]1CCC[C@H]2C[C@H]3CCN(C(c4ccccc4)c4ccccc4)C[C@H]3N2C1=O
Please rank these molecules by fraction unbound in descending order. Give your ranking as a list of the labels in the requested order. a, b, c
(a: 0.47, b: 0.18, c: 0.049)

a. CN[C@@H](C)C(=O)N[C@H]1CCC[C@H]2C[C@H]3CCN(CCc4ccccc4)C[C@H]3N2C1=O
b. CN[C@@H](C)C(=O)N[C@H]1CCC[C@H]2C[C@H]3CCN(CCc4ccccc4OC)C[C@H]3N2C1=O
Returns the identifier with the smallest measured fraction unbound among a and b . API: response body contains the label of the selected item. b

----------
Assay: Intrinsic clearance in human liver microsomes
Settings: liver microsomes, CLH
Outcome measure: microsomal CLint (µL/min/mg)

Here's what some known entries look like.
INSERT INTO measurements (substance_smiles, outcome_measure, unit_string, reported_measurement) VALUES
  ('CN[C@@H](C)C(=O)N[C@H]1CCC[C@H]2C[C@H]3CCN(C(=O)Cc4ccccc4)C[C@H]3N2C1=O', 'microsomal CLint', 'µL/min/mg', 6.5),
  ('CN[C@@H](C)C(=O)N[C@H]1CCC[C@H]2C[C@H]3CCN(C(=O)c4ccccc4)C[C@H]3N2C1=O', 'microsomal CLint', 'µL/min/mg', 7.05),
  ('CN[C@@H](C)C(=O)N[C@H]1CCC[C@H]2C[C@H]3CCN(S(=O)(=O)c4ccccc4)C[C@H]3N2C1=O', 'microsomal CLint', 'µL/min/mg', 7.1),
  ('CN[C@@H](C)C(=O)N[C@H]1CCC[C@H]2C[C@H]3CCN(CCc4ccc(Cl)c(Cl)c4)C[C@H]3N2C1=O', 'microsomal CLint', 'µL/min/mg', 28),
  ('CN[C@@H](C)C(=O)N[C@H]1CCC[C@H]2C[C@H]3CCN(Cc4ccccc4)C[C@H]3N2C1=O', 'microsomal CLint', 'µL/min/mg', 7.1),
  ('CN[C@@H](C)C(=O)N[C@H]1CCC[C@H]2C[C@H]3CCN(CC4CCCCC4)C[C@H]3N2C1=O', 'microsomal CLint', 'µL/min/mg', 8.9),
  ('CN[C@@H](C)C(=O)N[C@H]1CCC[C@H]2C[C@H]3CCN(C(=O)Nc4ccccc4)C[C@H]3N2C1=O', 'microsomal CLint', 'µL/min/mg', 6.7),
  ('CN[C@@H](C)C(=O)N[C@H]1CCC[C@H]2C[C@H]3CCN(C(=O)C(c4ccccc4)c4ccccc4)C[C@H]3N2C1=O', 'microsomal CLint', 'µL/min/mg', 27),
  ('CN[C@@H](C)C(=O)N[C@H]1CCC[C@H]2C[C@H]3CCN(CCC4CCCCC4)C[C@H]3N2C1=O', 'microsomal CLint', 'µL/min/mg', 5);

I. CN[C@@H](C)C(=O)N[C@H]1CCC[C@H]2C[C@H]3CCN(CCc4cccc(C)c4)C[C@H]3N2C1=O
II. CN[C@@H](C)C(=O)N[C@H](C(=O)N1CC[C@H]2CCN(CCc3ccccc3)C[C@H]21)C1CCCCC1
III. CN[C@@H](C)C(=O)N[C@H]1CCC[C@H]2C[C@H]3CCN(CCc4ccc(Br)cc4)C[C@H]3N2C1=O
List by increasing microsomal CLint. Provide your answer as the labels ordered per the instruction. III, I, II
(III: 4.7 µL/min/mg, I: 6.9 µL/min/mg, II: 32 µL/min/mg)

Ref: ChEMBL document CHEMBL3232969
